# MEASURED_TARGET: Integrase (Human immunodeficiency virus 1, UniProt Q7ZJM1)
# Sequence (Q7ZJM1 whole entry): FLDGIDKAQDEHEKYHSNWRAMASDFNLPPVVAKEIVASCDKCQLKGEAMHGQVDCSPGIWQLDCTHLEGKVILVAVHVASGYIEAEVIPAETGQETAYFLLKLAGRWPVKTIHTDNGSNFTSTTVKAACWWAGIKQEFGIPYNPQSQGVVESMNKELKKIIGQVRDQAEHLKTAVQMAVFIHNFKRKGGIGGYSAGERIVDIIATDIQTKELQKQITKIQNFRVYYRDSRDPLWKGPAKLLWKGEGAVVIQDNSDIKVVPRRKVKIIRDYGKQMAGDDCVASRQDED
# TEST_SUMMARY: Inhibition of HIV1 integrase strand transfer activity
QUANTITY_MEASURED: IC50

Inquiry: Consider the compound shown here: `COC(=O)C(=O)CC(=O)c1ccccc1` What is its recorded IC50?
Reply text: > 333 µM

====

# MEASURED_TARGET: UniProt Q7ZJM1
# TEST_SUMMARY: Inhibition of HIV1 integrase 3' processing activity
pIC50: −log10 of the molar value.
QUANTITY_MEASURED: pIC50

Inquiry: Hello, I am looking for reported pIC50 with UniProt Q7ZJM1 for `COC(=O)C(=O)CC(=O)c1ccccc1` . Could you help?
Reply text: < 3.48

Data origin, for the record: BindingDB's records for doi:10.1021/jm060193m
